// values below are reported pKi
- Tested System: Histamine Receptor H3 (Homo sapiens, UniProt Q9Y5N1)
- Sequence (Q9Y5N1 whole entry): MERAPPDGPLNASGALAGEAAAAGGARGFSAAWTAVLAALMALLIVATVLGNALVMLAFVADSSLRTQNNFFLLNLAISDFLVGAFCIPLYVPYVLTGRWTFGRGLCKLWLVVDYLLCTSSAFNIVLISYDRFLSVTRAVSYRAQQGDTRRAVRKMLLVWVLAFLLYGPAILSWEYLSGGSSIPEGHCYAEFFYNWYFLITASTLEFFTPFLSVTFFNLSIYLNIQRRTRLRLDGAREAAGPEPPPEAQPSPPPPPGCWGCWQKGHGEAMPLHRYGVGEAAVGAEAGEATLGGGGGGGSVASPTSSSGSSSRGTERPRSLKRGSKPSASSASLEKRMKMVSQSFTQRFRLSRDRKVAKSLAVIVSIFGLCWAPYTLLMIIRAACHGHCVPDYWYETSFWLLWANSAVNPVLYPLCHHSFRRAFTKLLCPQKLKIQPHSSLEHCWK
- Method Summary: Methyl histamine binding in human histamine H3 receptor cell line
- Details: membranes of stably transfected HEK293T cells, radioligand 1 nM, Ki from IC50 by Cheng-Prusoff
pKi: −log10 of the molar value. Counter-ions that a name gives are not always drawn.

# Molecule, pKi
records = [
    ("O=C(c1ccc(-n2ccc3cc(Br)ccc32)cc1)N1CC[C@H](N2CCCC2)C1", "> 8.00"),
    ("N#Cc1ccc2c(ccn2-c2ccc(C(=O)N3CC[C@H](N4CCCC4)C3)cc2)c1", "> 8.00"),
    ("c1ccc2c(c1)ncn2-c1ccc(CN2CC[C@H](N3CCCCC3)C2)cc1", "> 8.00"),
    ("N#Cc1ccc2c(cnn2-c2ccc(C(=O)N3CC[C@H](N4CCCC4)C3)cc2)c1", "> 8.00"),
    ("O=C(c1ccc(-n2ccc3c(Cl)cccc32)cc1)N1CC[C@H](N2CCCC2)C1", "> 8.00"),
    ("C[C@H]1CCCN1[C@H]1CCN(C(=O)c2ccc(-n3cnc4ccccc43)cc2)C1", "> 8.00"),
    ("C[C@@H]1CCCN1[C@H]1CCN(C(=O)c2ccc(-n3cnc4ccccc43)cc2)C1", "7.60 to 8.00"),
    ("O=C(c1ccc(-n2ncc3cc(F)ccc32)cc1)N1CC[C@H](N2CCCC2)C1", "> 8.00"),
    ("N#Cc1ccc2nn(-c3ccc(C(=O)N4CC[C@H](N5CCCC5)C4)cc3)cc2c1", "> 8.00"),
    ("O=C(c1ccc(-n2ccc3ccccc32)cc1)N1CC[C@H](N2CCCC2)C1 [Example 30, hydrochloride]", "> 8.00"),
    ("Cc1nc2ccccc2n1-c1ccc(CN2CC[C@H](N3CCCCCC3)C2)cc1", "> 8.00"),
    ("Cc1nc2ccccc2n1-c1ccc(C(=O)N2CC[C@H](N3CCN(C)CC3)C2)cc1", "< 7.00"),
    ("CC1CCN([C@H]2CCN(C(=O)c3ccc(-n4cnc5ccccc54)cc3)C2)CC1", "< 7.00"),
    ("O=C(c1ccc(-n2cnc3ccccc32)cc1)N1CC[C@H](N2CCCCCC2)C1", "> 8.00"),
    ("O=C(c1ccc(-n2ccc3cccc(F)c32)cc1)N1CC[C@H](N2CCCC2)C1", "> 8.00"),
    ("N#Cc1ccc2c(c1)ncn2-c1ccc(C(=O)N2CC[C@H](N3CCCC3)C2)cc1 [Example 48, fumarate]", "7.30 to 7.60"),
    ("Cc1cc2ccccc2n1-c1ccc(C(=O)N2CC[C@H](N3CCCC3)C2)cc1", "> 8.00"),
]
